Where do the numbers come from? From ChEMBL document CHEMBL4425098.

Assignment: determine reported MIC90 for the given compounds.
# Test system: Mycobacterium tuberculosis
# ASSAY DETAILS: Antibacterial activity against Mycobacterium tuberculosis H37Rv after 6 days by Alamar blue dye-based colorimetric assay
# Format: functional
# TEST CONDITIONS: 144 h
Numbers only, in mg/L.

Please review the entries below; each comes with its answer.
# COMPOUND STRUCTURE, UNIT ANNOTATION, RECORDED VALUE
records = [
    ("C=C/C(C)=C/[C@@]1(C)SC(=O)C(CCCCc2ccc(-c3ccccc3)cc2)=C1O", "mg/L", 12.5),
    ("C=C/C(C)=C/[C@@]1(C)SC(=O)C(CCCCc2ccc(Cl)cc2)=C1O", "mg/L", 100),
    ("C=C/C(C)=C/[C@@]1(C)SC(=O)C=C1OCC(=O)NCCn1cc(CNC(=O)[C@H](O)C(C)(C)CO)nn1", "mg/L", 100),
    ("C=C/C(C)=C/[C@@]1(C)SC(=O)C(C)=C1O", "mg/L", 3.1),
    ("C=C/C(C)=C/[C@@]1(C)SC(=O)C(CCCCN=[N+]=[N-])=C1O", "mg/L", 100),
    ("C=C/C(C)=C/[C@@]1(C)SC(=O)C(CCCCc2ccc(Br)cc2)=C1O", "mg/L", 12.5),
]

Below are 2 compounds. Give each one its MIC90.
1. C=C/C(C)=C/[C@@]1(C)SC(=O)C(CC)=C1O
2. C=C/C(C)=C/[C@@]1(C)SC(=O)C(C(=O)C(F)(F)F)=C1O

Reply text:
2.5
100

* * *

Target sequence: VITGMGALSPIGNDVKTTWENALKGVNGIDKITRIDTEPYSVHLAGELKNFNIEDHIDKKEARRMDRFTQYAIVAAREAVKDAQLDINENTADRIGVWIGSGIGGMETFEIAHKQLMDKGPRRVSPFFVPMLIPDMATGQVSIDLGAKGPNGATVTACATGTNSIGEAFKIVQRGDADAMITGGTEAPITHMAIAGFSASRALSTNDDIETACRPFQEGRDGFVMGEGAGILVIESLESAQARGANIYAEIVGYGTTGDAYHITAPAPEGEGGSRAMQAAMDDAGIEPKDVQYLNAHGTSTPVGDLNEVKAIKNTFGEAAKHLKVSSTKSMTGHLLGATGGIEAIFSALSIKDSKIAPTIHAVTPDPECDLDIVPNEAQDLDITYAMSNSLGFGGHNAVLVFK
Assignment: determine reported pKd for the given compounds.
Answers are plain numbers, as −log10 of the molar value.

# COMPOUND STRUCTURE, RECORDED VALUE
rows = [
    ("C=C/C(C)=C/[C@@]1(C)SC(=O)C(CCCCc2ccc(Br)cc2)=C1O", 4.04),
    ("C=C/C(C)=C/[C@@]1(C)SC(=O)C(C(=O)C(F)(F)F)=C1O", 4.23),
    ("C=C/C(C)=C/[C@@]1(C)SC(=O)C(CCCCc2ccc(-c3ccccc3)cc2)=C1O", 3.88),
    ("C=C/C(C)=C/[C@@]1(C)SC(=O)C(C(C)=O)=C1O", 4.85),
    ("C=C/C(C)=C/[C@@]1(C)SC(=O)C(C)=C1O", 3.97),
    ("C=C/C(C)=C/[C@@]1(C)SC(=O)C(CCCCN=[N+]=[N-])=C1O", 3.97),
]

Inquiry: Item under review: "C=C/C(C)=C/[C@@]1(C)SC(=O)C(C(=O)CCCCCc2ccc(-c3ccccc3)cc2)=C1O" . Reported pKd?
Reply text: 4.45
